Recorded values, source PubChem BioAssay.

# tgt: Nuclear receptor coactivator 3 (Homo sapiens) (UniProt Q9Y6Q9)
# Sequence (Q9Y6Q9 whole entry, looked up): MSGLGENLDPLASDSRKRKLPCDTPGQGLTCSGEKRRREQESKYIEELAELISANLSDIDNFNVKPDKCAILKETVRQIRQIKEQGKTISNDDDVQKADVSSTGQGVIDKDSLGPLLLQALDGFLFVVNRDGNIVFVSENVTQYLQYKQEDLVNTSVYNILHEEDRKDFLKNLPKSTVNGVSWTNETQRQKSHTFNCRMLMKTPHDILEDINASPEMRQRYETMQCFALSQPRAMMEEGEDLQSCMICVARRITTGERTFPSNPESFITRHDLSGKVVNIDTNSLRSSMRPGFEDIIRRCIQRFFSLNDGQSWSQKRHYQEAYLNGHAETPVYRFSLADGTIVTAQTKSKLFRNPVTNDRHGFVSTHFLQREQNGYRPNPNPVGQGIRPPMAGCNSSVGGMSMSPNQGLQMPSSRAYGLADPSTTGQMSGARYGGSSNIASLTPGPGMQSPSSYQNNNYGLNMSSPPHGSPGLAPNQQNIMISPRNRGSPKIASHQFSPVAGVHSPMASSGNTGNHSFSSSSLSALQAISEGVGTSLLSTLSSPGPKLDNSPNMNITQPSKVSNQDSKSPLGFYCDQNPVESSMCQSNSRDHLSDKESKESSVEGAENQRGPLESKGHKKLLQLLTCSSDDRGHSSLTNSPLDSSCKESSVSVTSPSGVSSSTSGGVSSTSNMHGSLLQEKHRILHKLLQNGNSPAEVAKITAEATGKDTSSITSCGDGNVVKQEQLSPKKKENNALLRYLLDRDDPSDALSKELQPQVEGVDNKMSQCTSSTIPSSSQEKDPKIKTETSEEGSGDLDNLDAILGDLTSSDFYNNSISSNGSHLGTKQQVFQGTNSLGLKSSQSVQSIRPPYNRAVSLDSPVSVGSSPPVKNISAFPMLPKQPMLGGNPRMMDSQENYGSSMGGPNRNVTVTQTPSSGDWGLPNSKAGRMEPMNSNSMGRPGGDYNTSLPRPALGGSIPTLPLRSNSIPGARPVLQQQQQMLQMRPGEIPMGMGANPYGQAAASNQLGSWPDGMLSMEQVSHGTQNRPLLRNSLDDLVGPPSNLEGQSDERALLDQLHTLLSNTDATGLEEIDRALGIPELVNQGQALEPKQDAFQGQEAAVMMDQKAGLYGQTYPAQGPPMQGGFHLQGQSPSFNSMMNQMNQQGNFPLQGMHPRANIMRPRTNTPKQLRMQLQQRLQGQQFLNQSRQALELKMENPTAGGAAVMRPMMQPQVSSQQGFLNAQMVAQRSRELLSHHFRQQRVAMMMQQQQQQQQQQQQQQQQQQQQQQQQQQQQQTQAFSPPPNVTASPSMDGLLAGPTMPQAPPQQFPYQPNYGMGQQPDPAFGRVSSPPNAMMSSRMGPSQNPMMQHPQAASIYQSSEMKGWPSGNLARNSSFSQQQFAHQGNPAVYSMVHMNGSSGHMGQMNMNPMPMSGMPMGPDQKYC
# assay: SRC3 coactivator transcriptional activity inhibitors, confirmation, cell-based, luminescence, quadruplicate (AID 588792);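 note: 0% = DMSO treated cells and 100% = gossypol at 36 µM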
# test settings: HEK293 GAL4-SRC3 luciferase reporter, at 3.6 µM
Activity calls are given as the source filed them.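 Rule for the calls: active = mean inhibition over 43.08%, the solvent-only control mean plus 3 SD; inactive = the rest.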
Bench note: report the call from active, inactive

substance_smiles=O=[N+]([O-])c1ccc2ncnc(Nc3ccc4c(c3)OCCO4)c2c1 group_label=active
substance_smiles=COc1ccc(CCNC(=O)COc2ccc(N(C)S(=O)(=O)c3ccc(Cl)cc3)cc2)cc1 group_label=inactive
substance_smiles=Cc1nn(-c2ccccc2Cl)c(Cl)c1/C=N/Nc1nc2ccccc2s1 group_label=active

Data request: Outcome logged for `O=C(Nc1nc2ccccc2s1)C1c2ccccc2Oc2ccccc21` in this assay:
Data returned: inactive

Data request: Outcome logged for `N=c1c2c(-c3ccccc3)c(-c3ccccc3)n(Cc3ccco3)c2ncn1CCCO` in this assay:
Data returned: inactive

Data request: Outcome logged for `COc1ccc(/C=C2\SC(=O)N(CCCC(=O)Nc3cc(Cl)ccc3C(=O)O)C2=O)cc1` in this assay:
Data returned: active

====

# tgt: Nuclear receptor subfamily 5 group A member 2 (Homo sapiens)
# assay: LRH-1 (NR5A2) inverse agonists, retest, confirmation, cell-based, luminescence (AID 651613);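 note: HEK293T cells co-transfected with LRH-1 and StAR promoter luciferase reporter; 0% = vehicle wells and 100% = parental cells lacking receptor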
# test settings: cell-based LRH-1 luciferase reporter, inverse agonism; at 3.6 µM; active compounds read high
Kindly state inhibition for each of the entries shown.
One number for each entry, in %.

Known results for molecules:
molecule=CNC(=S)N/N=C/c1cn(Cc2ccc(C)cc2)c2ccccc12 property_label=inhibition measured=46.9
molecule=Cc1ccc(C(O)(C(=O)NN(C(=O)c2ccccc2)c2ccccc2)c2ccc(C)cc2)cc1 property_label=inhibition measured=65.8
molecule="Cc1ccc2[nH]c3c(c2c1)CCN1C(=O)OC(C)(C)C31C (stereo unspecified)" property_label=inhibition measured=53.7

Could you tell me inhibition for each of these molecules? They are listed below.
1. COc1cc2oc(-c3ccc(O)cc3)cc(=O)c2c(O)c1OC
2. CCCc1nnc(SCC(=O)Nc2ccc(OC)cc2)o1
3. O=C(Nc1ccc(C(=O)N2CCOCC2)cc1)c1cccc([N+](=O)[O-])c1
4. CCOc1ccc(CCNC(=O)COC(=O)c2nc3nc(C)cc(C)n3n2)cc1OCC

Data returned:
35.9
42.6
48.4
48.8

Could you tell me inhibition for each of these molecules? They are listed below.
1. Cc1cccc(-n2ncc3c2CCCC3NC(=O)C2(C(N)=O)CC2)c1C (stereo unspecified)
2. CCCCNC(=O)COC(=O)c1c2c(nc3ccccc13)/C(=C\c1cccs1)CC2
3. CCOc1ccc(NC(=O)COC(=O)COc2cccc3c2OC(C)(C)C3)cc1
4. O=C(COc1ccc2c3c(c(=O)oc2c1)CCCC3)NCCCN1CCOCC1
5. Cc1cc(Cl)ccc1NC(=O)CN1C(=O)C(=O)N(C2CCCC2)C1=O

Data returned:
1: 55; 2: 34.9; 3: 61.5; 4: 44.6; 5: 50.9

Could you tell me inhibition for each of these molecules? They are listed below.
1. COc1ccc(-c2cc3ccccc3oc2=O)cc1NC(=O)c1ccc([N+](=O)[O-])o1
2. CC(C)NC(=O)N1Cc2cc(C(=O)NC3CCCCC3)nc(-c3cccc(-c4cccnc4)c3)c2[C@@H]1CCO
3. COc1ccc(S(=O)(=O)/N=C2\C=C(Nc3ccc(O)cc3)C(=O)c3ccccc32)cc1
4. COc1ccc(/C=N/NC(=O)c2[nH]c3ccc(Br)cc3c2-c2ccccc2)cc1
5. COc1ccc(NC(=O)CN2C(=O)NC3(CCCc4ccccc43)C2=O)c(OC)c1 (stereo unspecified)
6. O=C(COc1ccc(S(=O)(=O)N2CCCC2)cc1Cl)NCc1ccc2c(c1)OCO2

Data returned:
1: 16; 2: 62.6; 3: 107; 4: 42.6; 5: 50.9; 6: 34

Could you tell me inhibition for each of these molecules? They are listed below.
1. C/C(CC(C)(C)C1CCCCC1)=N\NC(N)=S
2. COc1cc(-c2cc(C(=O)NCc3ccc(S(N)(=O)=O)cc3)c3ccccc3n2)cc(OC)c1OC

Data returned:
[80.8, 20.3]

Data request: Record request: inhibition value, item `CC[C@H]1CN2CCc3cc(OC)c(OC)cc3[C@@H]2C[C@@H]1C[C@H]1NCCc2cc(OC)c(OC)cc21`
Data returned: 109

====

# assay: GAL4-VP16 reporter modulators, confirmation, counter-screen for NR2E3 agonist project, cell-based, luminescence, CHO-S, high throughput (AID 624379);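 note: luciferase from a UAS reporter driven by GAL4-VP16 transactivation; 0% = DMSO with VP16-transfected cells and 100% = DMSO with cells lacking VP16; higher means less reporter light so more repression of VP16 activity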
# test settings: CHO-S GAL4-VP16 luciferase reporter, at 3.98 µM
This is one part of the list. Active and inactive are the calls of the source.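 Rule for the calls: active = mean inhibition above a cutoff equal to the average over all tested compounds plus one standard deviation (cut at about 70% in these data); inactive = the rest.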
Bench note: report the call from Y = active, N = inactive

molecule=CCN1/C(=C\c2ccc3ccccc3[n+]2CC)Sc2cc(C)ccc21 group_label=Y
molecule=COc1ccc(Cn2c(=O)sc3ccccc32)cc1OC group_label=N
molecule=CCCOc1ccc(Cc2c(Cl)nc(SC)nc2NC)cc1 group_label=Y
molecule=O=C(CSc1nc(Nc2ccccc2)nc(N2CCOCC2)n1)Nc1cc(Cl)ccc1O group_label=N
molecule=O=C1C=C(c2ccnc3cc(Cl)ccc23)C[C@@H](c2ccc3c(c2)OCO3)C1 group_label=Y

Data request: Outcome logged for `CCOC(=O)c1ccc(NC(=O)Cn2cnc3cc(C)c(C)cc32)cc1` in this assay:
Data returned: Y

Data request: Outcome logged for `CN(C)S(=O)(=O)c1ccc(Oc2ccc(S(=O)(=O)N(C)C)cc2)cc1` in this assay:
Data returned: N

Data request: Outcome logged for `CCc1cc2c(NC3CCCC3)ncnc2s1` in this assay:
Data returned: N

Data request: Outcome logged for `CCN(CC)S(=O)(=O)c1ccc(N(C)Cc2ccc(C(F)(F)F)cc2)nc1` in this assay:
Data returned: N

Data request: Outcome logged for `COc1cc(CC(=O)Nc2nc(-c3ccc(F)c(F)c3)cs2)cc(OC)c1OC` in this assay:
Data returned: Y

Data request: Outcome logged for `COc1ccc2c(c1)c(=Cc1ccc(N(C)C)cc1)c1cc(-c3ccccc3)[n+](C)n12` in this assay:
Data returned: Y

Data request: Outcome logged for `COc1ccc(S(=O)(=O)NCCCCOc2ccc(Cl)cc2)cc1` in this assay:
Data returned: Y

Data request: Outcome logged for Cn1nccc1C(=O)NC1CCCc2c1cnn2-c1ccc(F)cc1F (stereo not given) in this assay:
Data returned: Y

Data request: Outcome logged for `Cc1ccc(NC(=O)CN(C)CC(=O)Nc2cccc(F)c2)cc1[N+](=O)[O-]` in this assay:
Data returned: Y

Data request: Outcome logged for `CCOc1cc(/C=C(/C#N)c2ccc(Cl)cc2)cc(Cl)c1OCC(=O)O` in this assay:
Data returned: Y

Data request: Outcome logged for `Cc1ccc(S(=O)(=O)N2CCN(c3ncnc4ccccc34)CC2)cc1` in this assay:
Data returned: Y

Data request: Outcome logged for `CCOC(=O)N1CCN(C(=O)C2CCN(c3ncnc4c3sc3cccc(F)c34)CC2)CC1` in this assay:
Data returned: N

Data request: Outcome logged for `COCCNc1nc(-n2nc(C)cc2C)nc2sc3c(c12)CCCC3` in this assay:
Data returned: N

Data request: Outcome logged for `Cc1ccc(F)cc1NC(=O)Cc1nn(C)c(=O)c2ccccc12` in this assay:
Data returned: N

Data request: Outcome logged for CN(Cc1cn(Cc2ccc(C(F)(F)F)cc2)nn1)C1CN(Cc2cn(Cc3ccc(C(F)(F)F)cc3)nn2)S(=O)(=O)C1 (stereo not given) in this assay:
Data returned: N

Data request: Outcome logged for `COC(=O)c1ccc(NC(=O)c2ccccc2NS(=O)(=O)c2ccccc2)cc1` in this assay:
Data returned: N

====

# tgt: Nuclear receptor subfamily 5 group A member 2 (Homo sapiens)
# assay: LRH-1 (NR5A2) inverse agonists, retest, confirmation, cell-based, luminescence (AID 651613);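 note: HEK293T cells co-transfected with LRH-1 and StAR promoter luciferase reporter; 0% = vehicle wells and 100% = parental cells lacking receptor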
# test settings: cell-based LRH-1 luciferase reporter, inverse agonism; at 3.6 µM; active compounds read high
Label fulfilled when inhibition >= 60%; otherwise not fulfilled.

Check out these entries, answers already filled in.
compound=CCOCC(=O)Nc1ccc(S(=O)(=O)NCCc2ccccc2)cc1 group_label="not fulfilled"
compound=O=C(C(=Cc1ccccc1)CN1CCCCC1)c1ccccc1 group_label=fulfilled
compound=NC(=S)N/N=C/c1ccc(-n2nncc2-c2ccc(Cl)cc2)cc1 group_label="not fulfilled"
compound=O=C1C(Cl)=C(N2CCOCC2)C(=O)N1c1ccc(Br)cc1 group_label="not fulfilled"
compound=CN(C)c1ccc(C=c2c3ccccc3n3c2cc(-c2ccccc2)[n+]3C)cc1 group_label=fulfilled
compound=CN(C)S(=O)(=O)c1ccc(C(=O)NCc2ccc3[nH]c4c(c3c2)CCCC4)cc1 group_label="not fulfilled"
compound="CCOc1ccc(NC(=O)CN2C(=O)NC(C)(c3ccc(OC(F)F)cc3)C2=O)cc1 (stereo unspecified)" group_label=fulfilled
compound="O=C(Nc1ccc2c(c1)OCCO2)C(c1cc2ccccc2o1)N1CCN(c2ccc(C(F)(F)F)cn2)CC1 (stereo unspecified)" group_label="not fulfilled"

Data request: Decide: inhibition of `COc1cc(C=CC(=O)c2cc(OC)c(OC)c(OC)c2)cc(OC)c1OC` >= 60%?
Data returned: fulfilled

Data request: Decide: inhibition of `Cc1cc(C)c(C(=O)/C=C/c2cccc3ccccc23)c(=O)[nH]1` >= 60%?
Data returned: fulfilled

Data request: Decide: inhibition of `CNC(=O)c1cc(Oc2ccc(NC(=O)Nc3ccc(Cl)c(C(F)(F)F)c3)cc2)ccn1` >= 60%?
Data returned: fulfilled

Data request: Decide: inhibition of `CC(C)CC[n+]1ccccc1/C=C/c1ccc(N(C)C)cc1` >= 60%?
Data returned: fulfilled

Data request: Decide: inhibition of `COc1cc(/C=C/C(=O)c2ccc(C)cc2)ccc1OCC#N` >= 60%?
Data returned: not fulfilled

Data request: Decide: inhibition of `CCN(CC)c1ccc2nc3ccccc3[n+](CC)c2c1` >= 60%?
Data returned: fulfilled
